System: HEK293
Assay: Inhibition of proteasome beta2 in HEK cell lysates at 1 to 100 uM after 1 hr by MV151 competitive SDS-PAGE analysis
Details: Homo sapiens
Calls of active or inactive are those of the source. The calls are words filed in the database; no cut-off is given here.
Classes to choose from: TRUE for active, FALSE for inactive

CC[C@H](C)[C@H](NC(=O)OC(C)(C)C)C(=O)N[C@H](C(=O)N[C@@H](CC(C)C)CS(=O)(=O)F)[C@@H](C)OCc1ccccc1
TRUE

Req: Any idea what this test logged for CC(C)C[C@@H](CS(=O)(=O)F)NC(=O)[C@@H](N)[C@@H](C)OCc1ccccc1 ?
Resp: FALSE

Req: I'd appreciate the recorded outcome for CC[C@H](C)[C@H](NC(=O)CN=[N+]=[N-])C(=O)N[C@H](C(=O)N[C@H](C(=O)N[C@@H](CC(C)C)CS(=O)(=O)F)[C@@H](C)O)[C@@H](C)CC from this test.
Resp: TRUE

Req: I'd appreciate the recorded outcome for CC(C)C[C@@H](CS(=O)(=O)F)NC(=O)[C@H](CC(C)C)NC(=O)[C@H](CC(C)C)NC(=O)[C@H](Cc1ccccc1)N=[N+]=[N-] from this test.
Resp: TRUE

====

System: HEK293
Assay: Inhibition of proteasome beta2 in HEK cell lysates at 1 to 100 uM after 1 hr by MV151 competitive SDS-PAGE analysis
Conditions: Homo sapiens
The source made the active and inactive calls. The rule behind the calls is not given here.
Parameter call: string, one of active, inactive

Answered cases to consult:
CC[C@H](C)[C@H](N)C(=O)N[C@H](C(=O)N[C@H](C(=O)N[C@@H](CC(C)C)CS(=O)(=O)F)[C@@H](C)O)[C@@H](C)CC
active
CC(C)C[C@@H](CS(=O)(=O)F)NC(=O)[C@H](CC(C)C)NC(=O)[C@H](CC(C)C)NC(=O)OC(C)(C)C
active

Req: # outcome recorded in this test, key = CC(C)C[C@@H](CS(=O)(=O)F)NC(=O)[C@H](Cc1ccccc1)NC(=O)c1cnccn1
Resp: inactive

Req: Which outcome was entered for the molecule CC(C)C[C@@H](CS(=O)(=O)F)NC(=O)[C@H](CC(C)C)NC(=O)[C@H](CC(C)C)NC(=O)[C@H](CC(C)C)NC(=O)OCc1ccccc1 in this test?
Resp: active

Req: Field: outcome | Entry: CC[C@H](C)[C@H](NC(=O)CN=[N+]=[N-])C(=O)N[C@H](C(=O)N[C@H](C(=O)N[C@@H](CC(C)C)CS(=O)(=O)F)[C@@H](C)OC(C)=O)[C@@H](C)CC
Resp: active
